For each record, write down the corresponding GI50.
- ASSAY_TARGET: BaF3_EGFRWT cells (Homo sapiens, UniProt P00533)
- Sequence (P00533 whole entry, change not shown): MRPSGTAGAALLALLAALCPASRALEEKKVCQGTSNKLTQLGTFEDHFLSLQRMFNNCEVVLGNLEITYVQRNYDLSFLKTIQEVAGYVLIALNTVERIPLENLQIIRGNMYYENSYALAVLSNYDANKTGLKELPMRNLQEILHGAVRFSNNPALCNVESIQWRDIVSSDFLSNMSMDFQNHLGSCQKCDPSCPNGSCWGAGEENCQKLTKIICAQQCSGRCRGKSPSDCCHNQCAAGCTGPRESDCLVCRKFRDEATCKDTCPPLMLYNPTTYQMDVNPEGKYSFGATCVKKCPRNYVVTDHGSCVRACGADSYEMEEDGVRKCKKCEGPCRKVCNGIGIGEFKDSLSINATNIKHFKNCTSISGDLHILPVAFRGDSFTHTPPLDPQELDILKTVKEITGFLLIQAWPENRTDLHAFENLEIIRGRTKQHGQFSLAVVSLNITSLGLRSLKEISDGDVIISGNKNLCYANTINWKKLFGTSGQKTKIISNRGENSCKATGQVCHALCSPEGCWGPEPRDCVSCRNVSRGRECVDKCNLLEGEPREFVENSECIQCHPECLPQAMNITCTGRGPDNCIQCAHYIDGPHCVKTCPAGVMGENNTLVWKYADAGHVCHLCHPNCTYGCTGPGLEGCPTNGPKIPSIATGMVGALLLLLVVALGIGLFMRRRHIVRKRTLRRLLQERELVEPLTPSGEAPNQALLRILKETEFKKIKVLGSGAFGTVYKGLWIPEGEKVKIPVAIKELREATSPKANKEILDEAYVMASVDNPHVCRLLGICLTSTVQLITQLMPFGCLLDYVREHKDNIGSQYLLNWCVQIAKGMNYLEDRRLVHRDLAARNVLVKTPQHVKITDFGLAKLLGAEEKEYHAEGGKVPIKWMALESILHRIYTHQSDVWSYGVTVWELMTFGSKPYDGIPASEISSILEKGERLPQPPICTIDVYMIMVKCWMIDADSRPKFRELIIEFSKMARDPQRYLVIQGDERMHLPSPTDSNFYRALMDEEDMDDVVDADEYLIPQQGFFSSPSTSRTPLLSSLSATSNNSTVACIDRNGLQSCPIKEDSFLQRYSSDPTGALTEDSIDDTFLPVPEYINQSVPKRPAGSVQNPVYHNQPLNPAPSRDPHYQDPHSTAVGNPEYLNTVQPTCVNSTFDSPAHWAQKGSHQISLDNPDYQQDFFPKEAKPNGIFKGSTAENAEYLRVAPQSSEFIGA
- PROCEDURE_TEXT: Cell growth inhibition assay (CellTiterGlo), BaF3_EGFRWT
- Format: cell-based
- DETAILS: cell growth inhibition, 80 ng/mL EGF, 3 days treatment, read-out: EGFR WT IC50

Study these solved cases before continuing.
- COMPOUND: "Cc1cc(Nc2ncnn3ccc(C4CC5CCC4CN5C(=O)/C=C/CN(C)C)c23)ccc1Oc1ccn2ncnc2c1 (single isomer, unassigned) [Examples 137 and 138, second eluting isomer]"
  ASSAY_TARGET: "BaF3_EGFRWT cells (Homo sapiens, UniProt P00533)"
  GI50: "1.5 to 5 µM"
- COMPOUND: "C=C(CN(C)C)C(=O)N1C2CCC1CC(c1ccn3ncnc(Nc4ccc(Oc5ccn6ncnc6c5)c(C)c4)c13)C2 (single isomer, unassigned) [Examples 126 and 127, first eluting isomer]"
  ASSAY_TARGET: "BaF3_EGFRWT cells (Homo sapiens, UniProt P00533)"
  GI50: "1.5 to 5 µM"

Parameters: items (list). Returns: GI50 for each item.
1. Cc1cc(Nc2ncnn3ccc(C4CC5CCC(C4)N5C(=O)/C=C/CN(C)C)c23)ccc1Oc1ccn2ncnc2c1 (single isomer, unassigned) [Examples 122 and 123, second eluting isomer]
2. Cc1cc(Nc2ncnn3ccc(C4CCN(C(=O)[C@H](F)Cl)CC4)c23)ccc1Oc1ccn2ncnc2c1 (single isomer, unassigned) [Examples 173 and 174, first eluting isomer]
3. Cc1cc(Nc2ncnn3ccc(C4CC5CCC(C4)N5C(=O)/C=C/CN(C)C)c23)ccc1Oc1ccn2ncnc2c1 (single isomer, unassigned) [Examples 122 and 123, first eluting isomer]

Response:
1. 1.5 to 5 µM
2. 1.5 to 5 µM
3. 0.5 to 1.5 µM
